Assay method text: in vivo
Condition label: male, CD-1, mouse, po, 20 mg/kg
Endpoint: Tmax (h)

>>> endpoint_result("O=c1c2nc([N+](=O)[O-])cn2ccn1Cc1ccc(OC(F)(F)F)cc1 [MCC7433]")
5.33

###

Assay method text: Aqueous (saturated water) solubility by LC-UV
Assay type: physicochemical
Condition label: deionized water, 37 °C, encapsulated samples 10% w/w, n = 3
Endpoint: solubility at 24 h

>>> endpoint_result("O=c1c2nc([N+](=O)[O-])cn2ccn1Cc1ccc(OC(F)(F)F)cc1")
"0.33 µg/mL"
>>> endpoint_result("O=[N+]([O-])c1cn2c(n1)OC[C@@H](OCc1ccc(OC(F)(F)F)cc1)C2")
"15.5 µg/mL"
